Attribution: the supplement of paper PMC6555819

Each entry below carries its recorded PBM binding z-score.
- Tested on: LXRa:RXRa (NR concentration 270 nM, RXRa partner concentration 90 nM)
- TEST NAME: PBM binding z-score (relative to random genomic background probes); higher = stronger binding; sequences stand for … in GC…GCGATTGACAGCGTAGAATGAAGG

ATCGAAAGGTCGTGAGGTCAGTATACAGAAAGGC :: 5.12
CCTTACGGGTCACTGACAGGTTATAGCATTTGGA :: 4.15
TCGAGTAGGCTACCAATGGGGCATTCAGCTTTCT :: -0.102
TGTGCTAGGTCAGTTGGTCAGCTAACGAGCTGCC :: 0.621
TCTTGTAGAGCAGCAGGTTAAGAAAGCTGGCCAA :: -0.0132

[in] What value of PBM binding z-score has been recorded for this entry: `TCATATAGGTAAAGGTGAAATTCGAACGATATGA`
[out] 1.08

[in] Same read-out for `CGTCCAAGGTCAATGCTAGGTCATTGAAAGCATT` ?
[out] 6.36

[in] Moving on to `CCTCGGAGGACAACAGGAGGACAGAGCTGCCAGA`
[out] 0.0624

[in] And what about the sequence `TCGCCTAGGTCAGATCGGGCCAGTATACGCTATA` ?
[out] 1.2

[in] What would you report for `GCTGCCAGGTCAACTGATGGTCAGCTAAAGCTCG` ?
[out] 3.82

[in] `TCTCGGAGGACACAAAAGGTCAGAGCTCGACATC` , same question.
[out] 4.16

[in] Follow-up item: `CGTCCAAGGTCAAGGCTAGGTCAGTGAAAGCATT`
[out] 5.52

[in] Continue with `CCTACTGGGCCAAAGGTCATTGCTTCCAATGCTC`
[out] 5.17

[in] Also, `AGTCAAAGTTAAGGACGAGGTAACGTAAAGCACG` please.
[out] -0.031

[in] Next sequence: `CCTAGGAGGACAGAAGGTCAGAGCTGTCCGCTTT`
[out] 1.59
